Test: Solubility in fasted-state simulated colonic fluid (FaSSCoF)
Format: physicochemical
Settings: 25 °C, pH 6.5, fassgf or other biorelevant, thermodynamic from solid, pH 6.5, 25° C., Run 1, read-out: pH 6.5 FaSSCoF Solubility Run 1
Method: The solubilities of compounds of the invention in FaSSCoF at pH 6.5 are determined using a modification of a previously-reported procedure (Vertzoni, M., et al. Pharm. Res. 2010, 27, 2187-2196). […] Test compounds are suspended in the pH 6.5 FaSSCoF medium to give a maximum final concentration of ca. 6 mg/mL. […] The filtrates are then diluted as appropriate for injection and quantification by HPLC with reference to a standard. […]
observable: solubility thermodynamic at 24 h (mg/mL)

compound	solubility thermodynamic at 24 h (mg/mL)
COCCOCCOCCNC(=O)c1cc(Nc2cc(Oc3ccc(NC(=O)Nc4cc(C(C)(C)C)cc(CNC(=O)CN(C)C)c4OC)c4ccccc34)ccn2)cc(OC)c1	0.0123
COc1cc(Nc2cc(Oc3ccc(NC(=O)Nc4cc(C(C)(C)C)cc([S+](C)[O-])c4OC)c4ccccc34)ccn2)cc(C(=O)NCCN2CCN(C)CC2)c1 (stereo not shown)	0.015
COc1cc(Nc2cc(Oc3ccc(NC(=O)Nc4cc(C(C)(C)C)cc(CC(N)=O)c4OC)c4ccccc34)ccn2)ccc1C(=O)NCC(CO)(CO)CO	0.0152
COc1cc(Nc2cc(Oc3ccc(NC(=O)Nc4cc(C(C)(C)C)cc([S+](C)[O-])c4OC)c4ccccc34)ccn2)ccc1C(=O)NCCN1CCOCC1 (stereo not shown)	0.0107

###

System: PBMCs
Test: LPS-induced IL-8 release in PBMC cells (assay b)
Format: cell-based, human
Conditions: Homo sapiens, PBMC; LPS-stimulated PBMCs; read-out: IC50 Values for Inhibition of Cytokine Release, PBMCs IL-8
Some compounds, each annotated with its measured IC50.
Supply the numeric figure in nM, leaving out any unit text.

compound	assayed-system	reported
COc1cc(Nc2nccc(Oc3ccc(NC(=O)Nc4cc(C(C)(C)C)cc(P(C)(C)=O)c4OC)c4ccccc34)n2)cc(P(C)(C)=O)c1 [Example 21]	PBMCs	3.2
COc1cc(F)cc(Nc2cc(Oc3ccc(NC(=O)Nc4cc(C(C)(C)C)cc(P(C)(C)=O)c4OC)c4ccccc34)ccn2)c1 [15(an)]	PBMCs	2.7
COc1cc(Nc2cc(Oc3ccc(NC(=O)Nc4cc(C(C)(C)C)cc(CNC(C)=O)c4OC)c4ccccc34)ccn2)cc(C(=O)NCCN2CCOCC2)c1 [38(t)]	PBMCs	0.7

Param item = COc1cc(Nc2cc(Oc3ccc(NC(=O)Nc4cc(C(C)(C)C)cc(P(C)(C)=O)c4OC)c4ccccc34)ccn2)ccc1C(=O)O [Example 76] ; retrieve measured IC50.
41.5

Param item = COc1c(NC(=O)Nc2ccc(Oc3ccnc(Nc4cnn(C)n4)n3)c3ccccc23)cc(C(C)(C)C)cc1P(C)(C)=O [15(x)] ; retrieve measured IC50.
6.1

Param item = COc1c(NC(=O)Nc2ccc(Oc3ccnc(Nc4ccccc4)c3)c3ccccc23)cc(C(C)(C)C)cc1S(C)(=O)=O [15(m)] ; retrieve measured IC50.
16

###

Form: system (Syk (Homo sapiens (Human), UniProt P43405)), quantity (IC50), values below.
observable: IC50 (nM)

Examples with answers:
molecule	assayed-system	IC50 [nM]
COCCOCCOCCNC(=O)c1cc(C(C)(C)C)cc(NC(=O)Nc2ccc(Oc3ccnc(Nc4cc(OC)cc(OCCOCCOCCOC)c4)n3)c3ccccc23)c1OC [Example 7]	Syk (Homo sapiens (Human), UniProt P43405)	57
COc1cc(Nc2cc(Oc3ccc(NC(=O)Nc4cc(C(C)(C)C)cc(C(=O)NCCN5CCOCC5)c4OC)c4ccccc34)ccn2)cc(OC)c1 [Example 62]	Syk (Homo sapiens (Human), UniProt P43405)	145

P. COc1c(C[S+](C)[O-])cc(C(C)(C)C)cc1NC(=O)Nc1ccc(Oc2ccnc(Nc3ccccc3)c2)c2ccccc12 (stereo not drawn) [Example 25]
Q. COc1c(CS(C)(=O)=O)cc(C(C)(C)C)cc1NC(=O)Nc1ccc(Oc2ccnc(Nc3ccccc3)c2)c2ccccc12 [Example 19]
Could you kindly indicate whether P or Q has the higher IC50 value? Record your answer as the label of the chosen record.
P
